Origin of the recorded values: patent EP0516186A2

protocol: Cellular toxicity in F5000 cells (cell multiplication)
Format: cell-based
test_parameters: F5000 human embryo cells, number of cells after 48 hrs; 50 % inhibition of cell multiplication; read-out: TC₅₀(µM) F5000
Catalogue of CC50 at 48 h values
The answer is to be given in µM; state only the numeric part.

Worked examples, 2 compounds total:
| chemical_smiles | CC50 at 48 h [µM] |
| --- | --- |
| Cc1cn([C@@H]2C[C@H](F)[C@@H](CO)O2)c(=O)[nH]c1=O | 250 |
| CCc1cn([C@@H]2C[C@H](F)[C@@H](CO)O2)c(=O)[nH]c1=O | 500 |

Quick note, CC50 at 48 h for CCc1cn([C@@H]2C[C@H](O)[C@@H](CO)O2)c(=O)[nH]c1=O landed at 1000
